The measurements presented in this section are drawn from patent US6284768A.

Target: p56lck GST-SH2 (lck SH2 domain) (Homo sapiens)
Construct: GST (N)
Sequence (P06239 127-224 limits assumed): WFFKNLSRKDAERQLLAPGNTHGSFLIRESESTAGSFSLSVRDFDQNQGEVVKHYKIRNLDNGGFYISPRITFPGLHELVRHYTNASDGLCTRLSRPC
Assay: Receptor-ligand equilibrium binding constants by surface plasmon resonance (biosensor), lck SH2 domain
Details: Table 1, compounds of formula (II)
pKd: −log10 of the molar value.
measuredParameter: pKd

Please review the following examples before continuing.
{"compound": "COc1ccc(Cn2ccc(C)c(NC(=O)[C@H](Cc3ccc(NC(=O)C(=O)O)cc3)NC(=O)CNC(=O)c3ccccc3C(=O)O)c2=O)cc1", "experimentalTarget": "p56lck GST-SH2 (lck SH2 domain) (Homo sapiens)", "pKd": 6.17}
{"compound": "CCC(C(=O)N[C@@H](Cc1ccc(C(C)(C)C(=O)O)cc1)C(=O)Nc1c(C)ccn(Cc2ccc(OC)cc2)c1=O)c1ccc2ccccc2c1 (stereo partly drawn)", "experimentalTarget": "p56lck GST-SH2 (lck SH2 domain) (Homo sapiens)", "pKd": 6.48}

(a) Cc1ccn(Cc2ccoc2)c(=O)c1NC(=O)C(Cc1ccc(C(C)(C)C(=O)O)cc1)NC(=O)Cc1ccc2ccccc2c1 (stereo not drawn)
(b) COc1ccc(Cn2ccc(C)c(NC(=O)[C@H](Cc3ccc(NC(=O)C(=O)O)cc3)NC(=O)Cc3cccc(Br)c3)c2=O)cc1
(c) COc1ccc(Cn2ccc(C)c(NC(=O)[C@H](Cc3ccc(CC(=O)O)cc3)NC(=O)Cc3ccc(Oc4ccccc4)cc3)c2=O)cc1
// ranking: key=pKd, reverse=True # list labels per requested ordering
b, a, c
(b: 6.19, a: 5.60, c: 4.85)

====

Molecular target: p56lck GST-SH2 (lck SH2 domain) (Homo sapiens)
Construct: GST (N)
Experiment: Receptor-ligand equilibrium binding constants by surface plasmon resonance (biosensor), lck SH2 domain
Settings: Table 1, compounds of formula (II)
measuredParameter: Kd (nM)

{"compound": "COc1ccc(Cn2ccc(C)c(NC(=O)C(Cc3ccc(C(C)(C)C(=O)O)cc3)NC(=O)C(C)(C)C)c2=O)cc1 (stereo not drawn) [Compound 171]", "assayValue": 4300}

(1) Cc1ccn(Cc2ccc(C(F)(F)F)cn2)c(=O)c1NC(=O)[C@H](Cc1ccc(C(C)(C)C(=O)O)cc1)NC(=O)Cc1ccc2ccccc2c1 [Compound 128]
(2) Cc1ccn(Cc2ccc(Cl)cc2)c(=O)c1NC(=O)[C@H](Cc1ccc(CC(=O)O)cc1)NC(=O)Cc1cccc2ccccc12 [Compound 55]
(3) Cc1ccn(Cc2ccccn2)c(=O)c1NC(=O)[C@H](Cc1ccc(CC(=O)O)cc1)NC(=O)Cc1cccc2ccccc12 [Compound 23]
(4) COc1ccc(Cn2ccc(C)c(NC(=O)[C@H](Cc3ccc(C(O)C(=O)O)cc3)NC(=O)Cc3cccc4ccccc34)c2=O)cc1 (stereo partly drawn) [Compound 8]
(5) CCCCCCn1ccc(C)c(NC(=O)C(Cc2ccc(C(C)(C)C(=O)O)cc2)NC(=O)Cc2ccc(C(F)(F)F)cc2)c1=O (stereo not drawn) [Compound 209]
Sort by Kd, descending. List labels; respect the requested ordering.
3, 2, 1, 4, 5

====

Molecular target: p56lck GST-SH2 (lck SH2 domain) (Homo sapiens)
Construct: GST (N)
Test: Receptor-ligand equilibrium binding constants by surface plasmon resonance (biosensor), lck SH2 domain
Conditions: Table 1, compounds of formula (II)
pKd: −log10 of the molar value.
measuredParameter: pKd

(I) Cc1ccn(Cc2ccc(OC(F)(F)F)cc2)c(=O)c1NC(=O)[C@H](Cc1ccc(CC(=O)O)cc1)NC(=O)Cc1cccc2ccccc12
(II) COc1ccc(Cn2ccc(C)c(NC(=O)[C@H](Cc3ccc(CC(=O)O)cc3)NC(=O)Cc3ccc(C(C)(C)C)cc3)c2=O)cc1
(III) COC1CCC(Cn2ccc(C)c(NC(=O)C(Cc3ccc(C(C)(C)C(=O)O)cc3)NC(=O)C(C)(C)c3ccc4ccccc4c3)c2=O)CC1 (stereo not drawn)
Put the entries in order of pKd, starting with the largest number. Put the labels in the order asked and list them.
II, III, I
(II: 6.00, III: 5.21, I: 4.90)

(A) COc1ccc(Cn2ccc(C)c(NC(=O)[C@H](Cc3ccc(NC(=O)C(=O)O)cc3)NC(=O)Cc3c[nH]c4ccccc34)c2=O)cc1
(B) COc1ccc(Cn2ccc(C)c(NC(=O)[C@H](Cc3ccc(NC(=O)C(=O)O)cc3)NC(=O)Nc3c(C)ccc4ccccc34)c2=O)cc1
(C) CCCCCCn1ccc(C)c(NC(=O)C(Cc2ccc(C(C)(C)C(=O)O)cc2)NC(=O)Cc2ccc(OC)cc2)c1=O (stereo not drawn)
// ascending sort on recorded pKd Order the labels as requested and list them.
A, C, B

(A) COc1ccc(Cn2c(C)cc(C)c(NC(=O)[C@H](Cc3ccc(CC(=O)O)cc3)NC(=O)Cc3cccc4ccccc34)c2=O)cc1
(B) COc1ccc(Cn2cc(Br)c(C)c(NC(=O)[C@H](Cc3ccc(-n4nnc(C(=O)O)c4C(=O)O)cc3)NC(=O)Cc3ccc4ccccc4c3)c2=O)cc1
Out of A and B , name the one with the higher pKd. Field: selected label. Fill in the label of the entry you choose.
B

(1) COc1ccc(Cn2ccc(C)c(NC(=O)[C@H](Cc3ccc(CC(=O)O)cc3)NC(=O)COc3nccc4ccccc34)c2=O)cc1
(2) COc1ccc(Cn2ccc(C)c(NC(=O)[C@H](Cc3ccc(NC(=O)C(=O)O)cc3)NC(=O)Cc3cccc4ccccc34)c2=O)cc1
Rank 1 against 2 by their pKd values and give the higher one. Respond with the label that goes with your answer.
2

(P) Cc1ccc(Cn2ccc(C)c(NC(=O)[C@H](Cc3ccc(CC(=O)O)cc3)NC(=O)Cc3cccc4ccccc34)c2=O)cc1
(Q) COc1ccc(Cn2ccc(C)c(NC(=O)[C@H](Cc3ccc(NC(=O)C(=O)O)cc3)NC(=O)Cc3ccc(NC(=O)C(C)(C)C)cc3)c2=O)cc1
(R) COc1ccc(Cn2ccc(C)c(NC(=O)[C@H](Cc3ccc(NC(=O)C(=O)O)cc3)NC(=O)Cc3cccc(N(C)C)c3)c2=O)cc1
Sort by pKd, descending. Kindly provide the labels arranged according to the requested ordering.
Q, R, P

(1) COC1CCC(Cn2ccc(C)c(NC(=O)C(Cc3ccc(C(C)(C)C(=O)O)cc3)NC(=O)Cc3ccc4ccccc4c3)c2=O)CC1 (stereo not drawn) [Compound 147]
(2) Cc1ccn(Cc2ccc(C(=O)C(F)(F)F)cc2)c(=O)c1NC(=O)C(Cc1ccc(C(C)(C)C(=O)O)cc1)NC(=O)Cc1ccc2ccccc2c1 (stereo not drawn)
(3) Cc1ccn(C/C=C/c2ccccc2)c(=O)c1NC(=O)C(Cc1ccc(C(C)(C)C(=O)O)cc1)NC(=O)C(C)(C)c1ccc2ccccc2c1 (racemic) [Compound 116]
Place the items in sequence of falling pKd. Put the labels in the order asked and list them.
1, 3, 2

(I) COc1ccc(Cn2ccc(C)c(NC(=O)[C@H](Cc3ccc(CC(=O)O)cc3)NC(=O)Cc3cc4ccccc4cc3C)c2=O)cc1
(II) COc1ccc(Cn2ccc(C)c(NC(=O)[C@H](Cc3ccc(NC(=O)C(=O)O)cc3)NC(=O)OC(C)(C)C)c2=O)cc1
// compare measured pKd between I and II ; output the lower one Which one? Tell me its label.
II
(II: 4.37, I: 5.72)

(1) CCC(CC)(C(=O)O)c1ccc(C[C@H](NC(=O)Cc2ccc3ccccc3c2)C(=O)Nc2c(C)ccn(Cc3ccc(OC)cc3)c2=O)cc1
(2) COc1ccc(C(C)n2ccc(C)c(NC(=O)[C@H](Cc3ccc(CC(=O)O)cc3)NC(=O)Cc3cccc4ccccc34)c2=O)cc1 (stereo partly drawn)
Please indicate which entry, 1 or 2 , has the lower recorded pKd value. Field: selected label. Fill in the label of the entry you choose.
2
(2: 5.68, 1: 6.33)
